Reported IC50 values for a set of compounds
Assay Target: BRD4 BD2 (Homo sapiens, UniProt O60885, Y97A)
Construct: BRD4 (1-477) (Y97A) and (Y390A); made in house; host or cells: E. coli (pET15b vector)
Test Protocol: TR-FRET binding assay, BRD4 BD2 (BD1-mutated protein)
Settings: read-out: pIC50 in the BRD4 BD2 assay (converted)

Q: Request body: readout IC50, system BRD4 BD2 (Homo sapiens, UniProt O60885, Y97A), query "CC(=O)N1c2ccc(C(N)=O)cc2[C@H](Nc2ccc(C#N)cn2)[C@@H](C)[C@@H]1C1CC1" . Return the value.
A: 100 nM

Q: Request body: readout IC50, system BRD4 BD2 (Homo sapiens, UniProt O60885, Y97A), query CC(=O)N1c2ccccc2[C@H](Nc2cccc(C#N)n2)[C@@H](C)[C@@H]1C1CC1 (racemic) . Return the value.
A: 1000 to 100000 nM

Q: Request body: readout IC50, system BRD4 BD2 (Homo sapiens, UniProt O60885, Y97A), query CC(=O)N1c2ccccc2[C@H](Nc2ccccc2)[C@@H](C)[C@@H]1C1CC1 (single isomer, unassigned) [Example 27a] . Return the value.
A: 100 nM

Q: Request body: readout IC50, system BRD4 BD2 (Homo sapiens, UniProt O60885, Y97A), query CC(=O)N1c2ccccc2[C@H](Nc2cncc(C)n2)[C@@H](C)[C@@H]1C1CC1 (racemic) . Return the value.
A: 1000 to 100000 nM

Q: Request body: readout IC50, system BRD4 BD2 (Homo sapiens, UniProt O60885, Y97A), query CC(=O)OC[C@@H]1[C@@H](Nc2ccccc2)c2ccccc2N(C(C)=O)[C@H]1C1CC1 (racemic) . Return the value.
A: 1000 to 100000 nM

Q: Request body: readout IC50, system BRD4 BD2 (Homo sapiens, UniProt O60885, Y97A), query COCCn1cc(-c2ccc3c(c2)[C@@H](Nc2cnc(C)cn2)[C@H](C)[C@@H](C2CC2)N3C(C)=O)cn1 (single isomer, unassigned) [Example 138b] . Return the value.
A: 1000 to 100000 nM

Q: Request body: readout IC50, system BRD4 BD2 (Homo sapiens, UniProt O60885, Y97A), query "CC(=O)N1c2ccc(F)cc2[C@H](Nc2cc(O)ccn2)[C@@H](C)[C@@H]1C1CC1" . Return the value.
A: 1000 to 100000 nM

----------
Assay Target: BRD4 BD2 (Homo sapiens, UniProt O60885, Y97A)
Construct: BRD4 (1-477) (Y97A) and (Y390A); made in house; host or cells: E. coli (pET15b vector)
Test Protocol: TR-FRET binding assay, BRD4 BD2 (BD1-mutated protein)
Settings: read-out: pIC50 in the BRD4 BD2 assay (converted)
Quantity: IC50 (nM)

- CC[C@H]1[C@H](C)[C@@H](Nc2cccc(C)n2)c2ccccc2N1C(C)=O (single isomer, unassigned) [Example 25a]: 100
- CC(=O)N1c2ccc(C(N)=O)cc2[C@H](Nc2ncccc2C(N)=O)[C@@H](C)[C@@H]1C1CC1: 100
- CC(=O)N1c2ccc(C(=O)NC(CO)CO)cc2[C@H](Nc2ccc(C#N)cc2)[C@@H](C)[C@@H]1C1CC1: 100
